Taken from the METLIN SMRT retention time set (Domingo-Almenara et al. 2019).

EXPERIMENT_DESCRIPTION: gradient 5% acetonitrile 3 min, to 50% in 2 min, to 85% in 15 min, held 3 min, 100 µL/min
SETTINGS: column: Zorbax Extend-C18 2.1 x 50 mm; eluents: water / acetonitrile, 0.1% formic acid
MEASUREMENT_NAME: RP-LC retention time (s)

Please review the entries below; each comes with its answer.
- COMPOUND: "CC1CC(=O)N(CC(=O)Nc2ccc3c(c2)OCO3)c2ccccc2S1 (stereo not given)"
  U: "s"
  RP-LC retention time: 865
- COMPOUND: "Cc1ccc(CN2CC(=O)N(c3cccc(C)c3)[C@@H]3CS(=O)(=O)C[C@@H]32)cc1"
  U: "s"
  RP-LC retention time: 855
- COMPOUND: "CC1=NS(=O)(=O)N(Cc2ccccc2)C=C1C(=O)OCc1nc(-c2ccccc2)no1"
  U: "s"
  RP-LC retention time: 1120
- COMPOUND: "CCc1cccc(NC(=O)C2CCN(S(=O)(=O)c3cc(C(=O)N4CCCC4)cs3)CC2)c1"
  U: "s"
  RP-LC retention time: 892
- COMPOUND: "O=C(Cn1cnc(-c2ccc(Cl)cc2)cc1=O)NCc1cccnc1"
  U: "s"
  RP-LC retention time: 568
- COMPOUND: "COc1ccc(CCC(=O)NCC(C)(O)c2ccccc2)cc1 (stereo not given)"
  U: "s"
  RP-LC retention time: 709
- COMPOUND: "COc1cc(-n2nnc(C(=O)NCc3ccco3)c2N)ccc1Cl"
  U: "s"
  RP-LC retention time: 765
- COMPOUND: "CCN1CCN(CCNC(=O)C(C)n2c3ccccc3c3cnn(C)c(=O)c32)CC1 (stereo not given)"
  U: "s"
  RP-LC retention time: 544

I: CCOC(=O)c1sc(NC(=O)c2cc(OC)ccc2OC)cc1C
II: O=C(NC1CCCCC1)c1ccc2ncnc(N3CCCCC3)c2c1
[ask] Identify the entry with the smaller RP-LC retention time: I or II . Record your answer as the label of the chosen record.
[reply] II

a: CCN1CCC(O)(/C=C/c2ccc(C)cc2)C(C(=O)/C=C/c2ccc(C)cc2)C1 (stereo not given)
b: Cn1nccc1-c1cccc(-c2noc(Cc3ccc(Cl)cc3)n2)c1
[ask] Could you kindly indicate whether a or b has the higher RP-LC retention time value? Record your answer as the label of the chosen record.
[reply] b
(b: 1130 s, a: 767 s)

---

EXPERIMENT_DESCRIPTION: gradient 5% acetonitrile 3 min, to 50% in 2 min, to 85% in 15 min, held 3 min, 100 µL/min
SETTINGS: column: Zorbax Extend-C18 2.1 x 50 mm; eluents: water / acetonitrile, 0.1% formic acid
MEASUREMENT_NAME: RP-LC retention time (s)

Please review the entries below; each comes with its answer.
- MOLECULE: "COCCCNC(=O)c1nc2ccccn2c1-c1ccc(Cl)cc1"
  VALUE_MEASURED: 764
- MOLECULE: "O=S(=O)(Nc1nc2ccc(S(=O)(=O)N3CCCC3)cc2s1)c1ccc(F)cc1"
  VALUE_MEASURED: 773
- MOLECULE: "CC(C)c1ccc(CNC(=O)c2nnc(-c3ccc(S(=O)(=O)N(C)C)cc3)o2)cc1"
  VALUE_MEASURED: 1010
- MOLECULE: "COc1ccc(C)cc1NC(=O)N1CCC(c2nc3ccncc3n2CC(C)C)C1 (stereo not given)"
  VALUE_MEASURED: 586
- MOLECULE: "CCN1C(=O)C2(CCN(S(=O)(=O)c3cn(C)cn3)CC2)c2ccccc21"
  VALUE_MEASURED: 724

I: Cc1ccc(-n2c(Cc3cccn3C)nnc2SCC(=O)NCC2CCCO2)cc1 (stereo not given)
II: Cc1oc(C(C)C)nc1C(=O)NCc1cccc(C(F)(F)F)c1
[ask] Could you kindly indicate whether I or II has the higher RP-LC retention time value? Record your answer as the label of the chosen record.
[reply] II
(II: 1080 s, I: 744 s)

---

EXPERIMENT_DESCRIPTION: gradient 5% acetonitrile 3 min, to 50% in 2 min, to 85% in 15 min, held 3 min, 100 µL/min
SETTINGS: column: Zorbax Extend-C18 2.1 x 50 mm; eluents: water / acetonitrile, 0.1% formic acid
MEASUREMENT_NAME: RP-LC retention time (s)

Please review the entries below; each comes with its answer.
- COMPOUND: "CC(=O)N1CCc2cc(N3CC(C(=O)Nc4ccc(Br)cc4)CC3=O)ccc21 (stereo not given)"
  RP-LC retention time, s: 770
- COMPOUND: "CS(=O)(=O)N(C1CCOCC1)C1CN(C(=O)CCc2c[nH]c3ccccc23)C1"
  RP-LC retention time, s: 678
- COMPOUND: "COc1ccc(NC(=O)Cn2c(N3CCCCC3)nc(C)cc2=O)cc1"
  RP-LC retention time, s: 661

I: CCN1C(=O)COc2ccc(-c3csc(NC(C)=O)n3)cc21
II: CCC(CC)C(c1ccc(Nc2nc3ccccc3s2)cc1)n1cncn1 (stereo not given)
[ask] Identify the entry with the smaller RP-LC retention time: I or II . Record your answer as the label of the chosen record.
[reply] I
(I: 719 s, II: 1150 s)

---

EXPERIMENT_DESCRIPTION: gradient 5% acetonitrile 3 min, to 50% in 2 min, to 85% in 15 min, held 3 min, 100 µL/min
SETTINGS: column: Zorbax Extend-C18 2.1 x 50 mm; eluents: water / acetonitrile, 0.1% formic acid
MEASUREMENT_NAME: RP-LC retention time (s)

- COMPOUND: "O=C(NCCC1CCN(S(=O)(=O)c2ccc(F)cc2)CC1)Nc1ccc(F)cc1"
  U: "s"
  VALUE_MEASURED: 909
- COMPOUND: "O=C(Nc1ccccc1C(=O)N1CCN(c2ccccc2F)CC1)C1=CSCCO1"
  U: "s"
  VALUE_MEASURED: 927
- COMPOUND: "O=C(NC1CCCC1)C1CCN(C(=O)C2Sc3ccccc3NC2=O)CC1 (centres undefined)"
  U: "s"
  VALUE_MEASURED: 697
- COMPOUND: "O=c1ccc(-c2ccc(F)cc2)nn1CCc1nc(-c2ccc(Cl)cc2)no1"
  U: "s"
  VALUE_MEASURED: 1060
- COMPOUND: "O=C(Nc1nc(CC(=O)N2CCN(c3ccccc3O)CC2)cs1)c1cnccn1"
  U: "s"
  VALUE_MEASURED: 612
- COMPOUND: "COc1ccc(-n2ncc3c(=O)n(Cc4nc(-c5ccc(C)cc5)no4)cnc32)cc1"
  U: "s"
  VALUE_MEASURED: 1030
- COMPOUND: "O=C(Nc1nc(CC(=O)N2CCCc3ccccc32)cs1)C1CC1"
  U: "s"
  VALUE_MEASURED: 739
- COMPOUND: "CSc1cccc(NC(=O)NCCNc2nc(C)cc(N(C)C)n2)c1"
  U: "s"
  VALUE_MEASURED: 583
- COMPOUND: "O=C(Nc1c(-c2ccc(F)cc2)nc2ccccn12)c1cccc(Cl)c1"
  U: "s"
  VALUE_MEASURED: 750
- COMPOUND: "O=C(NC1CC1)C1CCCN(c2ccc3cc(S(=O)(=O)N4CCCCC4)ccc3n2)C1 (centres undefined)"
  U: "s"
  VALUE_MEASURED: 683

1: Cc1nnc(-c2ccc3ccn(CC(=O)NCCc4ccc(S(N)(=O)=O)cc4)c3c2)o1
2: CCc1ccc(-c2csc(NC(=O)c3ccc(S(=O)(=O)N4CCCCC4)cc3)n2)cc1
[ask] Identify the entry with the smaller RP-LC retention time: 1 or 2 . Record your answer as the label of the chosen record.
[reply] 1
(1: 648 s, 2: 1260 s)

---

EXPERIMENT_DESCRIPTION: gradient 5% acetonitrile 3 min, to 50% in 2 min, to 85% in 15 min, held 3 min, 100 µL/min
SETTINGS: column: Zorbax Extend-C18 2.1 x 50 mm; eluents: water / acetonitrile, 0.1% formic acid
MEASUREMENT_NAME: RP-LC retention time (s)

Please review the entries below; each comes with its answer.
- MOLECULE: "O=C(Nc1ccccc1Cl)N1CCC(N2CC(F)(F)C[C@H]2COCC2CC2)CC1"
  RP-LC retention time (s): 720
- MOLECULE: "Cc1ccc(CNC(=O)Cn2c(=O)c(CCC(=O)NCC(C)C)nc3ccccc32)cc1"
  RP-LC retention time (s): 814
- MOLECULE: "CC1CCCN(c2nc(C(=O)NC3CC3)cs2)C1 (stereo not given)"
  RP-LC retention time (s): 590
- MOLECULE: "CCC(NC(=O)c1ccc2c(c1)nc1n2CCN(Cc2ccccc2)C1=O)c1cccs1 (stereo not given)"
  RP-LC retention time (s): 836
- MOLECULE: "CCCc1nc2ccc(CCC(=O)NCc3ccc(F)cc3)cc2[nH]1"
  RP-LC retention time (s): 624

I: O=C(Nc1cccc(-c2nnc3n2CCCC3)c1)c1ccco1
II: O=c1c2sccc2n(Cc2nc(-c3cccc(Br)c3)no2)c(=O)n1-c1ccccc1
[ask] Could you kindly indicate whether I or II has the higher RP-LC retention time value? Record your answer as the label of the chosen record.
[reply] II
(II: 1050 s, I: 640 s)
